# T/C per record follows
tested on: L1210 leukemia ip in BDF1 mice, survival T/C; experiment: NCI In Vivo Anticancer Drug Screen. Data for tumor model L1210 Leukemia (intraperitoneal) in B6D2F1 (BDF1) mice; conditions: endpoint: mean survival time; dose: 50.0 mg/kg/injection; schedule: Q01DX001 (ip); vehicle: carboxymethylcellulose (CMC); higher = longer survival
Toxic doses and inconclusive results are not listed.

Here's what some known entries look like.
CCCCCCCCCCC[As](=O)(O)O = 104 % of control
COc1cccc(CCNC(=O)CCN2C(=O)c3ccccc3C2=O)c1 = 94 % of control
O=C1c2cc(F)ccc2-c2cccc(F)c21 = 102 % of control
O=[N+]([O-])c1ccc(O)c2ncccc12 = 101 % of control
CCC1(O)CCCC1 = 95 % of control
CC(C)(O)c1cnnn1CCC[CH2][Pb]([c]1ccccc1)([c]1ccccc1)[c]1ccccc1 = 102 % of control
N#CC(C#N)=Cc1cccnc1 = 101 % of control
c1ccc(C2C(c3ccccc3)N2c2ccccc2)cc1 (centres undefined) = 105 % of control

I am curious: what T/C value has been reported for O=C(O)c1ccccc1SSc1ccccc1C(=O)O ? 100 % of control

Which T/C is reported for this compound? Cc1cc(N(CCCl)CCCl)ccc1C=Nc1ccc(-c2csc(-c3ccccc3)n2)cc1 103 % of control

# get_value(readout='T/C', item= Cn1c(C(Cl)Cl)nc2ccccc2c1=O ) 106 % of control

Look up T/C: CCOC(=O)C(C)(N)CCOCc1ccccc1 (centres undefined) 100 % of control

Which T/C reading was recorded for the compound N=C1SSC(=S)C1C(N)=O (centres undefined) ? 94 % of control

Could you tell me which T/C is on file for Nc1ccc(N)c2c1C(=O)c1cccc([N+](=O)[O-])c1C2=O ? 101 % of control
